The measurements presented in this section are drawn from PubChem BioAssay AID1159580.

# protocol: chemical genetic growth profiling, strain panel (AID 1159580);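 also: tested at 20 µM; growth read once vehicle control cultures reached saturation at 30 °C; lower values mean less growth of the strain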
# measurement conditions: S. cerevisiae deletion strains, growth OD, locus YJR066W, strain TOR1
The whole screen tested about 5,500 compounds, of which about 2,000 (36%) were called active. About 18% were inconclusive and are not listed. Rule as the data show it: active = normalized growth mostly below about 0.91 (no sharp cut-off); inconclusive = no clear call, values can overlap the other calls; inactive = mostly above about 0.92. The list shows a part of the results.
Select the matching outcome among Yes (active), No (inactive)

O=C(C=C(O)c1ccc(Br)cc1)C(=O)Nc1ccccc1 = Yes
Cc1c(C(=O)N2CCCCC2)cc(-c2ccccc2)n1-c1ccccc1 = No
CN=C(NC#N)NCCSCc1nc[nH]c1C = No
O=c1ccc2cc(O)c(O)cc2o1 = No
O=c1ccc2ccccc2o1 = No
CO[C@H]1C[C@H](O[C@H]2[C@H](C)[C@@H](OC3O[C@H](C)C[C@H](N(C)C)[C@H]3O)[C@@H](C)C[C@]3(CO3)C(=O)[C@H](C)[C@@H](O)[C@@H](C)[C@@H](C)OC(=O)[C@@H]2C)O[C@@H](C)[C@@H]1O (some centres undefined) = No

Look up the recorded call for `Cn1cncc1S(=O)(=O)/C(C#N)=C/c1ccccc1Sc1ccc(Cl)cc1` in this test.
No

Look up the recorded call for `N#C/C(=N/Nc1ccccc1Cl)S(=O)(=O)c1ccc(Cl)cc1` in this test.
No

Look up the recorded call for C[N+](C)(C)CCOP(=O)([O-])OP(=O)(O)OC[C@H]1OC(n2ccc(N)nc2=O)[C@H](O)[C@@H]1O (some centres undefined) in this test.
No
